For each of the compounds below, state its half-life.
Assay: Elimination half life in Sprague-Dawley rat at 10 mg/kg, po
Format: ADME, organism-based
Parameters: dose 10 mg/kg, route oral
Settings: in vivo, read-out: beta t1/2 (converted)
One number for each entry, in h.

# annotated cases, reported half-life shown
{"SUBSTANCE_SMILES": "O=C1O[C@@H](Cn2ccnn2)CN1c1ccc(N2CCN(Cc3ccc([N+](=O)[O-])o3)CC2)c(F)c1", "half-life (h)": 1.51}
{"SUBSTANCE_SMILES": "O=C1O[C@@H](Cn2ccnn2)CN1c1ccc(N2CCN(Cc3ccoc3)CC2)c(F)c1", "half-life (h)": 2.76}
{"SUBSTANCE_SMILES": "O=C1O[C@@H](Cn2ccnn2)CN1c1ccc(N2CCN(Cc3cccc([N+](=O)[O-])c3)CC2)c(F)c1", "half-life (h)": 2.36}

// moving on: another record for half-life
The compound identified as Nc1ccc(CN2CCN(c3ccc(N4C[C@H](Cn5ccnn5)OC4=O)cc3F)CC2)cc1 registered its half-life at 3.4

The reported numbers originate from ChEMBL document CHEMBL1151774.
